system: Spodoptera littoralis; experiment: Insecticidal activity against neonate larvae of Spodoptera littoralis after 5 days; type: functional; details: 120 h
measured_quantity: LC50 (µg/mL)
Unit µg/mL implied. Number only.

Value of LC50 reported for the molecule CC/C=C/[C@@]12[C@@H]3C[C@H]4[C@H]5[C@H](C)/C(=C6/OC(=O)C(C)=C6OC)O[C@]5(O3)[C@@H]1CCN42 [DIDEHYDROSTEMOFOLINE] is 0.84

Value of LC50 reported for the molecule CCCC[C@@]12C3CCN1[C@H]1C[C@H]2O[C@@]32O/C(=C3\OC(=O)C(C)=C3OC)[C@@H](C)[C@H]12 [STEMOFOLINE] is 2.04

Value of LC50 reported for the molecule C/C=C(\C)C(=O)O[C@H]1C[C@@H](OC(C)=O)[C@@]2(C(=O)OC)CO[C@H]3[C@@H](O)[C@@](C)([C@]45O[C@@]4(C)[C@@H]4C[C@H]5O[C@@H]5OC=C[C@@]54O)[C@H]4[C@]1(CO[C@]4(O)C(=O)OC)[C@@H]32 [AZADIRACHTIN A] is 8.2

Value of LC50 reported for the molecule CC[C@H](O)C[C@@]12[C@@H]3C[C@H]4[C@H]5[C@H](C)/C(=C6/OC(=O)C(C)=C6OC)O[C@]5(O3)[C@H]1CCN42 [2'-HYDROXYSTEMOFOLINE] is 30.3
